Data provenance: the Human Domainome abundance scans (Beltran et al. 2025)

Catalogue of abundance fitness readings, one per entry.
B1: Nuclear receptor subfamily 4 group A member 2, residues 260 to 336; numbered along this chain, P43354 (parent)
chain: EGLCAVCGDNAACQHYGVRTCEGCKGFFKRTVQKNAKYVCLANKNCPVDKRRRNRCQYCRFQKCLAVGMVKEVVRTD

- Variants of: B1
- METHOD_SUMMARY: abundance fitness (aPCA) (normalised: wild type 0, dead -1); higher = more abundant; growth selection in yeast, the domain comes from the species named
- CONDITION_SUMMARY: Homo sapiens
ASSAY_READOUT: abundance fitness

>>> recorded_result("V70R")
-0.013
>>> recorded_result("K44L")
-0.096
>>> recorded_result("V18A")
0.116
>>> recorded_result("R52M")
-0.021
>>> recorded_result("C59A")
-0.549
>>> recorded_result("T76Y")
0.168
>>> recorded_result("G17E")
-0.116
>>> recorded_result("K29Y")
-0.344
>>> recorded_result("H15A")
-0.138
>>> recorded_result("H15W")
0.013
>>> recorded_result("R30E")
-0.105
>>> recorded_result("L41G")
-0.109
>>> recorded_result("N35Q")
-0.081
>>> recorded_result("K63T")
0.038
>>> recorded_result("T76K")
-0.041
>>> recorded_result("E22M")
0.027
>>> recorded_result("Q57S")
0.083
>>> recorded_result("G26L")
-0.137
>>> recorded_result("R60G")
-0.648
>>> recorded_result("A66I")
-0.099
>>> recorded_result("C56V")
-1.05
>>> recorded_result("D49G")
-0.073
>>> recorded_result("T76I")
-0.007
>>> recorded_result("C56F")
-1.21
>>> recorded_result("Q62F")
-0.31
>>> recorded_result("R51C")
-0.188
>>> recorded_result("G17V")
-0.364
>>> recorded_result("Y58L")
-0.441
>>> recorded_result("V67S")
-0.097
>>> recorded_result("H15S")
-0.053
>>> recorded_result("C21Q")
0.041
>>> recorded_result("N54P")
-0.34
>>> recorded_result("L65V")
-0.096
>>> recorded_result("K25S")
-0.031
>>> recorded_result("T76F")
-0.079
>>> recorded_result("Y58E")
-0.055
>>> recorded_result("E72I")
-0.173
>>> recorded_result("P47G")
-0.085
>>> recorded_result("G68N")
-0.126
>>> recorded_result("Y16S")
-0.1
>>> recorded_result("R51L")
0.042
>>> recorded_result("T76W")
-0.085
>>> recorded_result("N35V")
-0.487
>>> recorded_result("G26T")
0.051
>>> recorded_result("K25W")
-0.013
>>> recorded_result("V70M")
-0.055
